# testTarget: T1, human PAR-2 (human, UniProt P55085 26-397)
# T1 sequence: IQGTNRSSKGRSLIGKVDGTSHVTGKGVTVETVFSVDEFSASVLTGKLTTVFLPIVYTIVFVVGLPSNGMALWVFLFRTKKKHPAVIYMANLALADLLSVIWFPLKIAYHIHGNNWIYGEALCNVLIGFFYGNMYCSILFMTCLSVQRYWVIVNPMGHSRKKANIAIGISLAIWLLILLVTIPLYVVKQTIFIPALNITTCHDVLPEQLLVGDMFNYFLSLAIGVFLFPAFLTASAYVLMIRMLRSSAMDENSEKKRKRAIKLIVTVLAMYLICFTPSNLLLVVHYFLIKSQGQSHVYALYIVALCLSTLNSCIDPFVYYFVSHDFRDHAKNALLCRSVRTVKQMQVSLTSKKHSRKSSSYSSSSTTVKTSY
# runDescription: cell-based or functional assay
attributeMeasured: PAR-2 β-arrestin cell based assay IC50, 2 µM SLIGKV (nM)
Report the value in nM with no unit label.

Some solved entries appear below for comparison.
binder	result
P24E934 (antibody, human IgG4 S228P, kappa, V domains shown) VH: QVQLVQSGAEVKKPGSSVKVSCKASGFSLSSYAISWVRQAPGQGLEWMGVIWGNGNVYYAQKFQGRVTITADESTSTAYMELSSLRSEDTAVYYCARWKGYKDHPFDYWGQGTLVTVSS VL: EIVLTQSPATLSLSPGERATLSCRASQNVYKWLDWYQQKPGQAPRLLIYNAYSRATGIPARFSGSGSGRDFTLTISSLEPEDFAVYYCQQHHSGWTFGGGTKVEIKR	1.5
P24E290 (antibody, human IgG4 S228P, kappa, V domains shown) VH: QVQLVQSGAEVKKPGSSVKVSCKASGFSLNSYGIIWVRQAPGQGLEWMGVIWGNGNTYYAQKFQGRVTITADESTSTAYMELSSLRSEDTAVYYCARWRGYKDYPFDYWGQGTLVTVSS VL: EIVLTQSPATLSLSPGERATLSCKASQNVYKYLDWYQQKPGQAPRLLIYNTNSLATGIPARFSGSGSGRDFTLTISSLEPEDFAVYYCLQHNSGWTFGGGTKVEIKR	2.2
P24E935 (antibody, human IgG4 S228P, kappa, V domains shown) VH: QVQLVQSGAEVKKPGSSVKVSCKASGFSLSSYAISWVRQAPGQGLEWMGVIWGNGNVYYAQKFQGRVTITADESTSTAYMELSSLRSEDTAVYYCARWKGYKDHPFDYWGQGTLVTVSS VL: EIVLTQSPATLSLSPGERATLSCRASQNVYKWLDWYQQKPGQAPRLLIYNAYSRATGIPARFSGSGSGRDFTLTISSLEPEDFAVYYCQQHHHGWTFGGGTKVEIKR	1.5

Exercise: // Input: P24E920 (antibody, human IgG4 S228P, kappa, V domains shown) VH: QVQLVQSGAEVKKPGSSVKVSCKASGFSLSSYAISWVRQAPGQGLEWMGVIWGNGNTYYAQKFQGRVTITADESTSTAYMELSSLRSEDTAVYYCARWRGFKDYPFDYWGQGTLVTVSS VL: EIVLTQSPATLSLSPGERATLSCRASQNVYKWLDWYQQKPGQAPRLLIYNAYSRATGIPARFSGSGSGRDFTLTISSLEPEDFAVYYCQQHNSGWTFGGGTKVEIKR . Output its PAR-2 β-arrestin cell based assay IC50, 2 µM SLIGKV only.
Key: 1.32

Exercise: // Input: P24E973 (antibody, human IgG4 S228P, kappa, V domains shown) VH: QVQLVQSGAEVKKPGSSVKVSCKASGFSLSSYAISWVRQAPGQGLEWMGVIWGNGNVYYAQKFQGRVTITADESTSTAYMELSSLRSEDTAVYYCARWKGYKDYPFDYWGQGTLVTVSS VL: EIVLTQSPATLSLSPGERATLSCRASQNVYKWLDWYQQKPGQAPRLLIYNAYSRATGIPARFSGSGSGRDFTLTISSLEPEDFAVYYCQQHGHGWTFGGGTKVEIKR . Output its PAR-2 β-arrestin cell based assay IC50, 2 µM SLIGKV only.
Key: 2.35

The values you see were collected from patent US20220056125A1.
